Target: μ-opioid receptors (Rattus norvegicus, UniProt P33535)
Construct: from tissue; host or cells: rat brain homogenate
Sequence (P33535 whole entry): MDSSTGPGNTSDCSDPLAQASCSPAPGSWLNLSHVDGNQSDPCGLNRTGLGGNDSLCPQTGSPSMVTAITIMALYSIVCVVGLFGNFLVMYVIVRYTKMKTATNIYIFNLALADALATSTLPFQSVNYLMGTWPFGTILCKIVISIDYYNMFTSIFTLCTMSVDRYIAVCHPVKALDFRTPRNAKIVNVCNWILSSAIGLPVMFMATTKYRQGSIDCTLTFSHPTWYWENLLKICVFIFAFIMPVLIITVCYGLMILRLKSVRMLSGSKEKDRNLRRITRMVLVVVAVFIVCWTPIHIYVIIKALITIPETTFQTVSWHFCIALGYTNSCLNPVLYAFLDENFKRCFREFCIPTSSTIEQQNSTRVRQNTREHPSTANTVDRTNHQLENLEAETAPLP
Test: Opioid receptor binding studies on rat's brain homogenisates with [3H]DAMGO
Where a name gives a salt, the structure may show the parent alone.
Assignment: determine reported pKi for the given molecules.
Give bare numbers, as −log10 of the molar value.

Required: pKi, one value per molecule below.
1. O=C1CC[C@@]2(OCCCc3ccccc3)[C@H]3Cc4cccc(O)c4[C@@]2(CC[N@H+]3CC2CC2)C1.[Cl-] [Compound 55, hydrochloride]
2. CN1CC[C@]23c4c5ccc(O)c4O[C@@]2(C)C(=O)CC[C@@]3(OCCCc2ccccc2)[C@H]1C5 [Compound 17b, hydrobromide]
3. COc1ccc2c3c1O[C@@]1(C)C(=O)CC[C@@]4(OCCCc5ccccc5)[C@@H](C2)N(C)CC[C@]314 [Compound 17a]
4. C[N+]1(C)CC[C@]23c4c5ccc(O)c4O[C@H]2C(=O)CC[C@@]3(OCCCc2ccccc2)[C@H]1C5.[I-]
5. C=CC[N@@+]1(C)CC[C@]23c4c5ccc(O)c4O[C@H]2C(=O)CC[C@@]3(OCC)[C@H]1C5.[I-]
6. O=C1CC[C@@]2(OCCCc3ccccc3)[C@H]3Cc4cccc5c4[C@@]2(CC[N@H+]3CC2CC2)[C@H]1O5.[Cl-] [Compound 54, hydrochloride]
7. C[N@+]1(CC2CC2)CC[C@]23c4c5ccc(O)c4O[C@H]2C(=O)CC[C@@]3(OCCCc2ccccc2)[C@H]1C5.[I-]

Reply:
1: 9.40; 2: 9.70; 3: 9.21; 4: 8.39; 5: 8.63; 6: 9.08; 7: 9.03

Required: pKi, one value per molecule below.
1. COc1ccc2c3c1O[C@H]1C(=O)CC[C@@]4(OCCCc5ccccc5)[C@@H](C2)[N@@+](C)(CC2CC2)CC[C@]314.[I-]
2. COc1cccc2c1[C@]13CCN(CC4CC4)[C@H](C2)[C@]1(OC)CCC(=O)C3 [Cyprodime, cyprodime, reference compound]
3. COc1cccc2c1[C@]13CC[N@@H+](CC4CC4)[C@H](C2)[C@]1(OCCCc1ccccc1)CCC(=O)C3.[Cl-] [Compound 56, hydrochloride]
4. C[N@+]1(CC2CCCO2)CC[C@]23c4c5ccc(O)c4OC2C(=O)CCC3(OCCCc2ccccc2)C1C5.[I-] (stereo partly shown)
5. C=CC[N@@+]1(C)CC[C@]23c4c5ccc(O)c4O[C@H]2C(=O)CC[C@@]3(OC)[C@H]1C5.[I-]
6. C=CC[N@+]1(C)CC[C@]23c4c5ccc(O)c4O[C@H]2C(=O)CC[C@@]3(OC)[C@H]1C5.[I-]

Reply:
8.75
7.63
9.47
9.43
8.23
8.88

###

Assignment: determine reported melting point for the given compounds.
Where a name gives a salt, the structure may show the parent alone.

C[N@+]1(CC2CC2)CC[C@]23c4c5ccc(O)c4O[C@H]2C(=O)CC[C@@]3(OCc2ccccc2-c2ccccc2)[C@H]1C5.[I-] = 219 to 221 °C
C=CC[N@@+]1(C)CC[C@]23c4c5ccc(O)c4O[C@H]2C(=O)CC[C@@]3(OCC)[C@H]1C5.[I-] [Compound 41] = 130 to 134 °C

Query compound follows.
Task item: Kindly indicate its recorded melting point. Item: COc1ccc2c3c1O[C@@]1(Cc4ccccc4)C(=O)C=C[C@@]4(OC)[C@@H](C2)N(C)CC[C@]314 (stereo in doubt) (as salt: hydrochloride)
Reply: 164 to 166 °C
